Tested on: CCRF-CEM
assay_explanation: NCI tumour cell line growth inhibition, 48 h
Calls of active or inactive are those of the source. No stated cut-off is given here; in the data, active = GI50 up to about 1.1 µM and inactive = higher.
The compounds listed here are annotated with their GI50.
endpoint_name: GI50

CCCCc1c2c(nc3c1CCc1cc(C=O)c(N)nc1-3)/C(=C/c1ccccc1)CCC2
> 100 µM (inactive)
O=C(c1ccccc1)c1ccc(-n2c3ccccc3c3ccc4c(c32)C(=O)C=CC4=O)cc1
1.11 µM (active)
Cc1cc(-c2cc(C(C)(C)C)c(O)c(C(C)(C)C)c2)c(C)cc1-c1cc(C(C)(C)C)c(O)c(C(C)(C)C)c1
> 100 µM (inactive)
COc1ccc(/C=N/n2c(Cc3ccccc3)n[nH]c2=O)cc1
> 100 µM (inactive)
CCN(CC)CCOc1ccc(CCc2cc(OC)c(OC)c(OC)c2)cc1
64.1 µM (inactive)

====

System: HL-60
assay_explanation: NCI tumour cell line growth inhibition, 48 h
Calls of active or inactive are those of the source. Cut-off read from the data, not from the text of the source: active = GI50 up to about 1.1 µM and inactive = higher.
endpoint_name: GI50

COc1ccc(NC(=O)CC(=O)NN)cc1
> 100 µM (inactive)
CN(/N=C\c1ccc2ccccc2c1)C1=NCCN1
10.4 µM (inactive)
COC(=O)[C@@H]1c2[nH]c3ccccc3c2C[C@@H]2c3ccccc3NC(=O)[C@@H]21
> 100 µM (inactive)
Clc1ccc(Cc2nc3ccccc3nc2-c2cccc(Br)c2)cc1
2.84 µM (inactive)
CCc1cccc(C)c1NC(=O)C(=O)Cc1nc2ccccc2s1
> 100 µM (inactive)
CCOC(=O)c1c(N2CCCC2)nsc1Nc1ccccc1
> 100 µM (inactive)
Cc1ccc(Sc2ccccc2N)cc1
18.9 µM (inactive)
CN(C)c1ccc(/C=N/c2ccc(Oc3ccc(Cl)cc3)c(Cl)c2)cc1
11.7 µM (inactive)
N#CC(C(=O)C(=O)Nc1c(Cl)cccc1Cl)c1ccccc1 (stereo not given)
> 10 µM (inactive)
C/C(=N/N(C=O)C[n+]1ccccc1)C(CN(CC(C)C)CC(C)C)C(=O)Nc1ccc(C)cc1C (stereo not given)
73.1 µM (inactive)
CCCCC/C=C1\CCC(CN2CCOCC2)C1=O (stereo not given)
2.26 µM (inactive)
C[C@]12CCC(=O)C(O)=C1CC[C@@H]1C2CC[C@]2(C)NC(=O)CCC12 (stereo not given in full)
> 100 µM (inactive)
O=C1Nc2ccccc2Nc2ccncc21
> 100 µM (inactive)
CC(=O)NC1C(OCc2ccccc2)OC(CO)C(O)C1OC(C)C(=O)NC(C(=O)NC(CCC(=O)NCCCNc1ccc([N+](=O)[O-])c2[nH]c3ccccc3c(=O)c12)C(N)=O)C(C)C (stereo not given)
> 100 µM (inactive)
CN(CCCNC(=O)c1nn(C)c2c1Cc1ccccc1-2)CCCNC(=O)c1nn(C)c2c1Cc1ccccc1-2
5.28 µM (inactive)
C/N=N/N(C)C(=O)NC
> 100 µM (inactive)
CCn1cc2c(=O)n3ncn(-c4ccc(Br)cc4)c3nc2n1
> 100 µM (inactive)
O=C(NNC(c1ccccc1)C(F)(F)F)c1ccncc1 (stereo not given)
> 100 µM (inactive)
O=C(Nc1ccccc1[N+](=O)[O-])C(=O)C(C(=O)c1ccccc1-c1ccccc1)C1OC(=O)c2ccccc21 (stereo not given)
14.7 µM (inactive)
CCCOc1ccc(/C=C\c2cc(OC)c(OC)c(OC)c2)cc1
18.9 µM (inactive)
CCN(CC)CCNCc1cc(Cl)cc2c1OCOC2
> 10 µM (inactive)
O=C([O-])C[n+]1ccccc1.c1ccncc1
97.1 µM (inactive)
CC1(C)C=C(S(=O)(=O)c2ccccc2)Oc2ccccc2O1
20.5 µM (inactive)
O=[N+]([O-])/C(C(Cl)=C(Cl)Cl)=C(/Nc1ccccc1)Sc1ccccc1
20.6 µM (inactive)
N[C@H]1C2C3CC4C5CC(C42)C1(c1ccccc1)C53 (stereo not given in full)
> 100 µM (inactive)
CC1OC(CC2C=CCc3c(O)c4c(c(O)c32)C(=O)c2ccccc2C4=O)CC(NC(=O)C(F)(F)F)C1O (stereo not given)
11.8 µM (inactive)
O=C(Nc1ccccc1)c1cc(S(=O)(=O)N2CCNNC2=O)c(S)cc1Cl
> 100 µM (inactive)
COC1C=C(NCC2(CO)CCC2)N=C(N)N1 (stereo not given)
> 100 µM (inactive)
NNC(=O)c1cccc2c1Oc1ccccc1S2
79.6 µM (inactive)
COc1c(O)c(O)c2c(c1O)C(=O)c1cc(C)cc(O)c1C2=O
50 µM (inactive)
CNC(=O)N(CCC#N)CCCN(C(=O)N(C)C)c1ccccc1
> 100 µM (inactive)
COc1cc2ncnc(Nc3cccc(Br)c3)c2cc1OC
> 28.8 µM (inactive)
CN(C)c1ccc(/C=C/C=c2/c3ccccc3n3c2cc(-c2ccccc2)[n+]3C)cc1
0.075 µM (active)
O=C(O)c1ccc(C2C(=O)N[C@@H]3CCC[C@H]23)cc1 (stereo not given in full)
> 100 µM (inactive)
O=P12N(CCN1c1ccccc1)CCN2c1ccccc1
> 100 µM (inactive)
CN(C)C(=S)/N=c1\ssc(=S)n1Cc1ccccn1
3.19 µM (inactive)
Cc1ccc(-c2n[nH]c(=O)n2N2C(=O)C=CC2=O)cc1
> 100 µM (inactive)
CC(=O)Oc1c2ccsc2c(OC(C)=O)c2ccsc12
0.647 µM (active)
c1ccc2c(c1)CCN(C1=NCCO1)C2
> 10 µM (inactive)
Nc1c(S(=O)(=O)O)cc(Nc2cccc(S(=O)(=O)/C=C/S(=O)(=O)O)c2)c2c1C(=O)c1ccccc1C2=O
> 100 µM (inactive)
O/N=N/c1ccc2ccccc2n1
> 100 µM (inactive)
CC1C[C@]2(C)C(=O)Nc3ccccc3[C@@H]2Nc2ccccc21 (stereo not given in full)
36.4 µM (inactive)
CCC(=O)NC(OCC1(CC)COC1)(C(F)(F)F)C(F)(F)F
> 100 µM (inactive)
CCOC(=O)N1CCc2cc(OC)c(OC)c3c2c1cc1cc(OC)c(OC)cc13
1.32 µM (inactive)
Cc1ccc([S+]([O-])/C=C(\NC(=O)OCc2ccccc2)C(F)(F)F)cc1 (stereo not given)
18 µM (inactive)

====

Test system: CCRF-CEM
assay_explanation: NCI tumour cell line growth inhibition, 48 h
Activity calls are given as the source filed them. Cut-off read from the data, not from the text of the source: active = GI50 up to about 1.1 µM and inactive = higher.
endpoint_name: GI50

COc1c(O)c(O)c2c(c1O)C(=O)c1cc(C)cc(O)c1C2=O
33.3 µM (inactive)
CCOC(=O)N1CCc2cc(OC)c(OC)c3c2c1cc1cc(OC)c(OC)cc13
4.26 µM (inactive)
CCC1(O)C(=O)OCc2c1cc1n(c2=O)Cc2cc3ccccc3nc2-1 (stereo unspecified)
< 0.0122 µM (active)
CCc1cccc(C(C)C)c1NC(=O)CCl
37.1 µM (inactive)
c1ccc(C[N+]23C(CC[C@H]2c2ccccc2)CC[C@H]3c2ccccc2)cc1 (stereo partly specified)
27.4 µM (inactive)
Cc1cc(N(CCC#N)CCC#N)ccc1/C=C(\NC(=O)/C=C/c1ccccc1)NC(=O)Nc1ccc(Cl)cc1
> 100 µM (inactive)

====

System: UACC-257
assay_explanation: NCI tumour cell line growth inhibition, 48 h
The source made the active and inactive calls. Cut-off read from the data, not from the text of the source: active = GI50 up to about 1.1 µM and inactive = higher.
endpoint_name: GI50

NNC(=O)c1cccc2c1Oc1ccccc1S2
> 100 µM (inactive)
O=C([O-])C[n+]1ccccc1.c1ccncc1
> 100 µM (inactive)
COc1ccc(C(=O)N/N=C/c2c(C)n(C)n(-c3ccccc3)c2=O)cc1
> 100 µM (inactive)
COC1=CC(=O)C2[C@H]3Cc4ccccc4[C@H]3C2(C)C1=O (stereo partly specified)
> 100 µM (inactive)
CC(NC(=O)/C(C#N)=C/c1ccc2[nH]ccc2c1)c1ccccc1 (stereo unspecified)
21.3 µM (inactive)
C=C(C)c1nc(C#N)c(N)o1
> 100 µM (inactive)
COc1c2c(cc3occ(-c4ccc(CC=C(C)C)cc4)c(=O)c13)OC(C)(C)C=C2
39.4 µM (inactive)
COc1ccc(OC)c(-c2cn3c(n2)sc2ccccc23)c1
> 100 µM (inactive)
CCC1=CCC(P(=O)(c2ccccc2)c2ccccc2)CC1C (stereo unspecified)
74.5 µM (inactive)
C1#Cc2ccccc2OCCOc2ccccc2C#Cc2ccccc2OCCOc2ccccc21
> 100 µM (inactive)
COC(=O)[C@H](C)N(C)C(=O)[C@H](C)N1[C@@H](c2ccccc2)COC1(C)C
> 100 µM (inactive)
CC#CC(O)(C(=O)OC1CC2CCC(C1)N2C)C1CCCC1 (stereo unspecified)
> 100 µM (inactive)
O=C1N[C@H]2c3c(Cl)sc(Cl)c3[C@@H](O)[C@H]2O1
> 100 µM (inactive)
O=C1C(c2ccccc2)=C(c2ccccc2)C(c2ccc(Sc3ccc(C4=C(c5ccccc5)C(=O)C(c5ccccc5)=C4c4ccccc4)cc3)cc2)=C1c1ccccc1
> 100 µM (inactive)
COC1=CC(=O)c2c(cc(COP(=O)(OCC3OC(n4cc(F)c(=O)[nH]c4=O)CC3O)N(C)CCCCCl)n2C)C1=O (stereo unspecified)
18.5 µM (inactive)
CC(=O)OCSc1ncnc2c1ncn2CN1CCOCC1
53.5 µM (inactive)
COc1cc2c3cc1Oc1c(OC)c(OC)cc4c1C(=NCC4)Cc1ccc(cc1)Oc1cc(ccc1O)C[C@H]3N(C)CC2
16 µM (inactive)
CC(C)C(OC(=O)c1ccc(NCc2cc(O)ccc2O)cc1)C(C)C
1.39 µM (inactive)
Clc1ccc(Cc2nc3ccccc3nc2-c2cccc(Br)c2)cc1
3.1 µM (inactive)
Oc1cc2c(cc1O)-c1[nH]ncc1CC2
58.7 µM (inactive)
COc1ccc(/C=C/c2cc(=O)cc(/C=C/c3ccc(OC)c(O)c3)o2)cc1O
2.04 µM (inactive)
